# credit: PubChem BioAssay (Tox21)

Procedure summary: qHTS assay to identify small molecule antagonists of the androgen receptor (AR) signaling pathway - cell viability counter screen (AID 743033; further: nearly all actives have a fitted effect of over 45% in size)
Test context: AR-bla HEK293 viability, CellTiter-Glo luminescence, 16 h; series mostly up to 58.5 µM
Inconclusive results are not listed. Activity calls are given as the source filed them. The call rests on the fitted dose curve; in most records, active means well fitted cell-killing curve with a large enough effect in the repeat runs; inconclusive means weak or mixed curves; inactive means no such curve, though single readings can be large or run the other way.
Outcome codes: active, inactive

INSERT INTO assay_data (molecule, answer_label) VALUES
  ('O=C(O)CC(=O)O', 'inactive'),
  ('CCN=C1C=CC(=C(c2ccc(N(CC)CC)cc2)c2ccc(N(CC)CC)cc2)c2ccccc21', 'active'),
  ('O=C(O)CCn1c2c(c3ccccc31)C[C@H](NS(=O)(=O)c1ccc(F)cc1)CC2', 'inactive'),
  ('C=CC(=C)CCC=C(C)C', 'inactive'),
  ('CN1[C@@H]2CC[C@H]1CC(OC(=O)C(CO)c1ccccc1)C2 (stereo partly drawn)', 'inactive'),
  ('Cc1ccc(N)cc1O', 'inactive'),
  ('CC(C)OC(=O)c1cc(C(=O)OC(C)C)cc([N+](=O)[O-])c1', 'inactive'),
  ('CCCCCCCOC(=O)c1ccc(O)cc1', 'inactive'),
  ('C[C@@H]1CC[C@H]2C(C)(C)[C@H]3C[C@@]12CC[C@@]3(C)O', 'inactive'),
  ('C(=C/c1ccccc1)/c1ccccc1', 'inactive'),
  ('CC(NCCC(c1ccccc1)c1ccccc1)c1ccccc1 (stereo not drawn)', 'active'),
  ('COC(=O)CC#N', 'inactive'),
  ('CCCCCCCCCCCCN(CCO)CCO', 'active');
